Assay: protection of differentiated C2C12 cells from simvastatin – single point, plate reader, primary screen (AID 602340);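 also: myotubes were challenged with 10 µM simvastatin during compound exposure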
Details: C2C12 myotubes + simvastatin, ATP luminescence, 48 h; at 7.49 µM; hits give high values; scaled: DMSO 0, geranylgeraniol control 100
Out of some 330,000 compounds screened, about 2,600 (0.79%) were called active. The sample holds actives, similar compounds and a random draw of the others, so the mix is not that of the screen.
attributeMeasured: rescue of ATP level (%)

[[record]]
compound = "COc1ccccc1NC(=O)N1C[C@H](O)COC[C@H]2O[C@H](CC(=O)NCCc3ccccc3)CC[C@@H]21"
measuredresult = -6.91

[[record]]
compound = "COc1ccc(NS(=O)(=O)c2ccc(NC(=O)C(C)(C(F)(F)F)C(F)(F)F)cc2)nn1"
measuredresult = 113

[[record]]
compound = "COC(=O)Nc1ccc(S(=O)(=O)Nc2cc(OC)nc(OC)n2)cc1"
measuredresult = -0.957

[[record]]
compound = "CC(C)NC(=O)Nc1ccc2c(c1)CC(=O)N([C@H](C)CO)C[C@H](C)[C@@H](CN(C)C(=O)Nc1ccc(F)cc1)O2"
measuredresult = -12.6

[[record]]
compound = "CCCC(O)C#Cc1cnc2c(c1)C(=O)N([C@H](C)CO)C[C@H](C)[C@H](CN(C)Cc1ccc(F)cc1)O2 (stereo partly drawn)"
measuredresult = -2.92

[[record]]
compound = "CO[C@H]1CN(C)C(=O)c2ccc(NC(=O)c3ccccc3F)cc2OC[C@H](C)N(C(=O)c2ccccc2F)C[C@H]1C"
measuredresult = -0.874

[[record]]
compound = "O=C(N[C@H]1CC[C@@H](CCn2cc(Cc3ccccc3)nn2)O[C@H]1CO)c1cnccn1"
measuredresult = -1.98

[[record]]
compound = "O=C(C1CCCN(S(=O)(=O)c2ccccc2)C1)N1CCN(c2ccc(F)cc2)CC1 (stereo not drawn)"
measuredresult = -8.18

